# System: BaF3 cells expressing JAK2-V617F/Y931C/F1061W
# METHOD NOTES: BaF3 cell proliferation dose-response
# Type: cell-based
# PARTICULARS: Mus musculus, BaF3, read-out: IC50, cell proliferation
MEASURE NAME: pIC50
The scale used: pIC50 is minus the common logarithm of the concentration in molar units.

Note down pIC50 recorded for Cc1cnc(Nc2ccc(OCCN3CCCC3)cc2)nc1Nc1cccc(S(=O)(=O)NC(C)(C)C)c1 [fedratinib]
5.70
